Catalogue of molecules with associated composite z-score
test.details: binders of probe aFGF10 on microarray, primary screen, stem cell growth factor project, biochemical, small-molecule microarray, fluorescence 635/667 (AID 1071);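 also: score merges 667 nm spot intensity and signal to noise from triplicate slides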
experimental.conditions: higher = more signal
Returns: the value as a bare number; no unit string appended.

molecule	readout.type	endpoint.value
O=C(CS)NCCCCCCNC(=O)[C@@H]1C[C@@H]2C(=O)N3CCC[C@H]3C(=O)N2[C@@H]1c1cccc(OCCO)c1	composite z-score	0.256
COCCOC(=O)N1C(=O)[C@@]2(c3cc(C#CC4=CCCCC4)ccc31)[C@H](c1ccccc1OCCO)N1[C@H](c3ccccc3)[C@H](c3ccccc3)OC(=O)[C@H]1[C@@H]2C(=O)N1CCc2cc(OC)c(OC)cc2C1	composite z-score	0.515

Moving on to another molecule below.
[ask] Find the recorded composite z-score belonging to C=CCC(OC(C)=O)[C@@H]1[C@@H](N(Cc2cc3ccccc3o2)C(=O)c2ccc(C)cc2)c2cc(OCCCO)ccc2N1C(=O)Cc1ccc2ccccc2c1 (stereo partly drawn) and report it.
[reply] 0.113
